target: human GLP-1 receptor (human, UniProt P43220 24-463); experiment: cell-based or functional assay
Starred links: 1 amine or outer side, 2 acyl side, 3 side chain; linkers in the order of their positions; H or OH if unused. Non-standard residues stand in square brackets, D forms with d. Groups on a side chain read outwards from the residue. *: point of attachment. C20 diacid = O=C(O)CCCCCCCCCCCCCCCCCCC(=O)*; C18 diacid = O=C(O)CCCCCCCCCCCCCCCCC(=O)*; γGlu = O=C(O)[C@H](CCC(=O)[*:2])N[*:1]; AEEA = NCCOCCOCC(=O)O; Aib = CC(C)(N)C(=O)O
Listing: Human GLP-1R potency [EC50 (pM)] of selected binders
Give just the numeric value; pM need not be written.

Please fill in: Human GLP-1R potency [EC50 (pM)] reported for Compound 0202 (peptide) peptide: H[Aib]EGTFTSDVSSYLEGQAAK([AEEA-AEEA-γGlu-C20 diacid])EFIAWLVRGRGQEPGQAPEASELSTAALGRLSAELHELATLPRTETGSGSP-NH2 = 10.5

Please fill in: Human GLP-1R potency [EC50 (pM)] reported for Compound 0115 (peptide) peptide: H[Aib]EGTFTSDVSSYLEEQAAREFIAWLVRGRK([AEEA-AEEA-γGlu-C18 diacid])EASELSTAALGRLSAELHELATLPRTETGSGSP-NH2 = 2.2

Please fill in: Human GLP-1R potency [EC50 (pM)] reported for Compound 0056 (peptide) peptide: H[Aib]EGTFTSDVSSYLEGQAAK([AEEA-AEEA-γGlu-C18 diacid])EFIAWLVRGRGK([AEEA-AEEA-γGlu-C18 diacid])QEPGQEPEASELSTAALGRLSAELHELATLPRTETGSGSP-NH2 = 41.4

Please fill in: Human GLP-1R potency [EC50 (pM)] reported for Compound 0109 (peptide) peptide: H[Aib]EGTFTSDVSSYLEEQAARK([AEEA-AEEA-γGlu-C18 diacid])FIAWLVRGK([AEEA-AEEA-γGlu-C18 diacid])GGGGGGGGGEASELSTAALGRLSAELHELATLPRTETGSGSP-NH2 = 3.2
